B1: Ankyrin-1, residues 1405 to 1484; numbered along this chain, P16157 (parent)
chain: MKMAVISEHLGLSWAELARELQFSVEDINRIRVENPNSLLEQSVALLNLWVIREGQNANMENLYTALQSIDRGEIVNMLE

variants of: B1; experiment: abundance fitness (aPCA) (normalised: wild type 0, dead -1); higher = more abundant; growth selection in yeast, the domain comes from the species named; settings: Homo sapiens
reported_property: abundance fitness
Respond numerically, and do not add a unit to the figure.

sequence_code: MKMAVISEHLGLSWAELARELQFSVEDINRIRVENPNSLLEQSVALLNLWVIREGQNANMENEYTALQSIDRGEIVNMLE [L63E]
abundance fitness: -0.646

Supply measured abundance fitness of MKMAVISEHLGLSWAELARELQFSVEDINRIRVEYPNSLLEQSVALLNLWVIREGQNANMENLYTALQSIDRGEIVNMLE [N35Y] in your reply.
-0.42

// fetch abundance fitness given entry MKMAVISEHLGLSWAELARELQFSVEDINRIRVENPNSLLEQSVALLNLWVIREGQNANMENLYTALASIDRGEIVNMLE [Q68A]
-0.012
